# Tested on: 616215-338-R-J1-PDC spheroids with HUVEC/MSC, viability;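 note: spheroids exposed to agents for seven days before the viability read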
# Experimental protocol: Anticancer human tumor 616215-338-R-J1-PDC patient-derived colon adenocarcinoma cell line growth inhibition [PI3K]
# Assay conditions: second compound 0.316 µM; first compound 0.1 µM; active compounds read low
Provide the reported viability, T/C of each item.
One number for each entry, in %.

Known viability, T/C results, listed for orientation:
viability, T/C for Cn1nccc1Nc1nccc(-c2ccn(C(CO)c3ccc(Cl)c(F)c3)c(=O)c2)n1 (stereo unspecified) + CC(Nc1ncnc2nc[nH]c12)c1cc2cccc(Cl)c2c(=O)n1-c1ccccc1 ?
102

viability, T/C for Cn1ncnc1[C@H]1c2n[nH]c(=O)c3cc(F)cc(c23)N[C@@H]1c1ccc(F)cc1 + COc1c(OCCCN2CCOCC2)ccc2c3n(c(=NC(=O)c4cnc(N)nc4)nc12)CCN3 ?
29.8

viability, T/C for C=CC(=O)N1CCN(c2nc(=O)n(-c3c(C)ccnc3C(C)C)c3nc(-c4c(O)cccc4F)c(F)cc23)C(C)C1 (stereo unspecified) + CC(Nc1ncnc2nc[nH]c12)c1cc2cccc(Cl)c2c(=O)n1-c1ccccc1 ?
107

viability, T/C for CC(C)NCC(C(=O)N1CCN(c2ncnc3c2C(C)CC3O)CC1)c1ccc(Cl)cc1 (stereo unspecified) + CC(Nc1ncnc2nc[nH]c12)c1cc2cccc(Cl)c2c(=O)n1-c1ccccc1 ?
95

Can you give me viability, T/C for all of these, one by one?
1. CC(C)NCC(C(=O)N1CCN(c2ncnc3c2C(C)CC3O)CC1)c1ccc(Cl)cc1 (stereo unspecified) + CC(Nc1ccc2c(c1)OCCn1cc(N3C(=O)OCC3C(F)F)nc1-2)C(N)=O
2. CNC(=O)c1ccc(N2C(=S)N(c3ccc(C#N)c(C(F)(F)F)c3)C(=O)C2(C)C)cc1F + COc1c(OCCCN2CCOCC2)ccc2c3n(c(=NC(=O)c4cnc(N)nc4)nc12)CCN3
3. CC(=O)c1c(C)c2cnc(Nc3ccc(N4CCNCC4)cn3)nc2n(C2CCCC2)c1=O + Cc1nc(NC(=O)N2CCCC2C(N)=O)sc1-c1ccnc(C(C)(C)C(F)(F)F)c1
4. CC(C)n1nc(-c2ccc3oc(N)nc3c2)c2c(N)ncnc21 + Cc1nc(NC(=O)N2CCCC2C(N)=O)sc1-c1ccnc(C(C)(C)C(F)(F)F)c1
5. Cn1ncnc1[C@H]1c2n[nH]c(=O)c3cc(F)cc(c23)N[C@@H]1c1ccc(F)cc1 + Cc1nc(NC(=O)N2CCCC2C(N)=O)sc1-c1ccnc(C(C)(C)C(F)(F)F)c1
6. CNC(=O)c1ccc(N2C(=S)N(c3ccc(C#N)c(C(F)(F)F)c3)C(=O)C2(C)C)cc1F + Cc1nc(NC(=O)N2CCCC2C(N)=O)sc1-c1ccnc(C(C)(C)C(F)(F)F)c1
7. CCN1CCN(Cc2ccc(Nc3ncc(F)c(-c4cc(F)c5nc(C)n(C(C)C)c5c4)n3)nc2)CC1 + CC(Nc1ncnc2nc[nH]c12)c1cc2cccc(Cl)c2c(=O)n1-c1ccccc1

99.9
45.3
108
82.1
90
99.9
100
